Data origin: patent US9145392B2

system-name: His-AKT (Full Length) (Homo sapiens (Human))
Sequence (P31749 whole entry): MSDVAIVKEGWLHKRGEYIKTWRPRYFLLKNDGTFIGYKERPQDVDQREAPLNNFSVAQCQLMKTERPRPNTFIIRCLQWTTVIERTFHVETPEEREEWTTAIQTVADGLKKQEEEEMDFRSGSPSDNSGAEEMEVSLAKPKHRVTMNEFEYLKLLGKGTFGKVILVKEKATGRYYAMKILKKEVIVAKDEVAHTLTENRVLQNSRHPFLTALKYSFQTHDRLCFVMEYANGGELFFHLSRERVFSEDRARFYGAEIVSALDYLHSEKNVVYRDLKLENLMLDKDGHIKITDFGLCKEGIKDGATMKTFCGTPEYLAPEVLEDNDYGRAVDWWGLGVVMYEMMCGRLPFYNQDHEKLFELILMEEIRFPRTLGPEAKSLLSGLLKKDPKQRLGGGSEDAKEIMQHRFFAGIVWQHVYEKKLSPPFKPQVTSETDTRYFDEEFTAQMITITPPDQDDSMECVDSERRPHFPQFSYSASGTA
test-protocol: AKT enzyme assay
Assay type: biochemical
setup-conditions: read-out: IC50 AKT
assay-readout: IC50 (nM)

Here's what some known entries look like.
>  <structure>
Cn1cc(-c2ccc(F)c(C(F)(F)F)c2)nc1C1CCN(c2ncnc(N)c2-c2ccncc2)CC1

>  <assay-readout>
IC50

>  <numeric-value>
860

$$$$
>  <structure>
CN(C)CCn1cc(-c2ccc(F)c(C(F)(F)F)c2)nc1C1CCN(c2ncnc(N)c2CCC2CC2)CC1

>  <assay-readout>
IC50

>  <numeric-value>
190

$$$$
>  <structure>
NC(=O)c1c(N)ncnc1N1CCC(c2nc(-c3ccc(F)c(C(F)(F)F)c3)cn2C[C@@H]2CCN2)CC1

>  <assay-readout>
IC50

>  <numeric-value>
220

$$$$
>  <structure>
Nc1ncnc(N2CCC(c3nc(-c4cccc(Cl)c4)cn3CCN3CCCC3)CC2)c1C1CCC1

>  <assay-readout>
IC50

>  <numeric-value>
6.2

$$$$
>  <structure>
NC(=O)c1c(N)ncnc1N1CCC(c2nc(-c3cc[nH]c(=O)c3)cn2CCN2CCC2)CC1

>  <assay-readout>
IC50

>  <numeric-value>
5800

$$$$

(P) CCc1c(N)ncnc1N1CCC(c2nc(-c3ccc(F)c(C(F)(F)F)c3)cn2CCN2CCC(F)(F)C2)CC1
(Q) CNCCn1cc(-c2ccc(F)c(C)c2)nc1C1CCN(c2ncnc(N)c2C(N)=O)CC1
Query block: Between the two listed entries P and Q , which has its IC50 at the higher number? Lab log: write the label of the selected item as the result.
Result block: P
(P: 430 nM, Q: 16 nM)

(P) CS(=O)(=O)c1cccc(-c2cn(CCN3CCC3)c(C3CCN(c4ncnc(N)c4C#N)CC3)n2)c1
(Q) CN(C)CCn1cc(-c2ccc(F)c(C(F)(F)F)c2)nc1C1CCN(c2ncnc(N)c2C2CC2)CC1
Query block: Of the two listed items, P and Q , which carries the larger IC50 figure? Bench note: the answer is the label of the chosen record.
Result block: P
(P: 80 nM, Q: 4.8 nM)

(I) CNCCn1cc(-c2ccc(F)c(C(F)(F)F)c2)nc1C1CCN(c2ncnc(N)c2C(N)=O)CC1
(II) Cc1cc(-c2cn(CCN3CCCC3)c(C3CCN(c4ncnc(N)c4C#N)CC3)n2)ccc1F
(III) C=C(C)c1c(N)ncnc1N1CCC(c2nc(-c3ccc(F)c(C(F)(F)F)c3)cn2CCN2CCCC2)CC1
(IV) Nc1ncnc(N2CCC(c3nc(-c4cccc(C(F)(F)F)c4)cn3CCN3CCCC3)CC2)c1C1CCC1
Query block: Ascending sort, IC50. # answer = labels listed in requested order
Result block: II, IV, III, I
(II: 3.5 nM, IV: 8.1 nM, III: 20 nM, I: 33 nM)

(A) Nc1ncnc(N2CCC(c3nc(-c4ccc(F)c(F)c4)cn3CCN3CCCC3)CC2)c1Cl
(B) N#Cc1c(N)ncnc1N1CCC(c2nc(-c3cccc(Cl)c3)cn2CCN2CCCC2)CC1
Query block: Hi, I'm comparing two records. Which one has the lower IC50, A or B ? State the label of the item chosen.
Result block: A

(I) N#Cc1c(N)ncnc1N1CCC(c2nc(-c3ccc(OC(F)F)cc3)cn2CCN2CCC2)CC1
(II) Nc1ncnc(N2CCC(c3nc(-c4ccc(F)c(C(F)(F)F)c4)cn3CCN3CCC3)CC2)c1N
(III) Cn1cc(-c2ccc(F)c(C(F)(F)F)c2)nc1C1CCN(c2ncnc(N)c2C(N)=O)CC1
(IV) N#Cc1c(N)ncnc1N1CCC(c2nc(-c3cnoc3)cn2CCN2CCC2)CC1
Query block: // ranking: key=IC50, reverse=True Dear reader, please state the labels in the requested order.
Result block: III, I, IV, II

(1) CCc1c(N)ncnc1N1CCC(c2nc(-c3cccc(F)c3)cn2CCN2CCCC2)CC1
(2) CC(C)Oc1c(N)ncnc1N1CCC(c2nc(-c3ccc(F)c(C(F)(F)F)c3)cn2CCN2CCC2)CC1
Query block: // compare measured IC50, left 1 , right 2 , return larger Your choice should be expressed through its label.
Result block: 1
(1: 46 nM, 2: 7.9 nM)

(A) CCc1c(N)ncnc1N1CCC(c2nc(-c3ccc(F)c(C(N)=O)c3)cn2CCN2CCC2)CC1
(B) NC(=O)c1c(N)ncnc1N1CCC(c2nc(-c3ccc(F)c(C(F)(F)F)c3)cn2CCN2CCCCC2)CC1
Query block: Please choose the item with the lower IC50 value from this pair: A and B Field: selected label. Fill in the label of the entry you choose.
Result block: B
(B: 11 nM, A: 49 nM)

(a) COC(=O)c1ccc(-c2c(N)ncnc2N2CCC(c3nc(-c4ccc(F)c(C(F)(F)F)c4)cn3CCN3CCC3)CC2)cc1
(b) CN(C)CCn1cc(-c2ccc(F)c(C(F)(F)F)c2)nc1C1CCN(c2ncnc(N)c2-c2cnc(N)nc2)CC1
(c) Cc1ccc(-c2cn(CCN3CCC3)c(C3CCN(c4ncnc(N)c4C(N)=O)CC3)n2)cc1Cl
(d) N#Cc1c(N)ncnc1N1CCC(c2nc(-c3ccc(F)cc3)cn2CCN2CCCC2)CC1
(e) Nc1ncnc(N2CCC(c3nc(-c4ccc(O)c(C(F)(F)F)c4)cn3CCN3CCCC3)CC2)c1Cl
Query block: Task field, ranking: reported IC50, descending order. Put the labels in the requested order and list them out.
Result block: b, c, a, d, e

(1) Nc1ncnc(N2CCC(c3nc(-c4ccc(F)c(C(F)(F)F)c4)cn3CCN3CCCC3)CC2)c1Cl
(2) CCc1c(N)ncnc1N1CCC(c2nc(-c3ccc(F)c(F)c3)cn2CCN2CC(F)C2)CC1
Query block: Could you determine which record has the numerically smaller IC50? Candidates: 1 and 2 Selection: enter the item's label.
Result block: 1
